# Test system: L. infantum axenic amastigotes
# Protocol Notes: apoptosis/necrosis profiling, annexin V/PI staining, axenic amastigotes
# Format: cell-based, Leishmania infantum
# Measurement Conditions: 4 × EC50, 24 h
Marks after values point to notes of the source that are not given here.
Experimental Endpoint: % cells, Necrosis (AV−, PI+)

1. CC(C)(C)c1ccc(N/C(=N\C(=O)c2ccccc2)NCc2ccccc2)cc1
8.14 ± 0.78%
2. C[C@@H]1[C@H](O)[C@@H](C)/C=C/C=C/C=C/C=C/C=C/C=C/C=C/[C@H](O[C@@H]2O[C@H](C)[C@@H](O)[C@H](N)[C@@H]2O)C[C@@H]2O[C@](O)(C[C@@H](O)C[C@@H](O)[C@H](O)CC[C@@H](O)C[C@@H](O)CC(=O)O[C@H]1C)C[C@H](O)[C@H]2C(=O)O [Amphotericin B, reference compound]
0.96 ± 0.33 ^d %
3. O=C(/N=C(/NCc1ccccc1)Nc1ccc(I)cc1)c1ccccc1
12.27 ± 0.48%

Turning to the following molecule.
# molecule O=C(/N=C(/NCc1ccccc1)Nc1ccc(Br)cc1)c1ccccc1 ; its % cells, Necrosis (AV−, PI+) = 13.80 ± 1.47%

###

% cells, Late Apoptosis (AV+, PI+) values, listed per item
# Tested on: L. infantum axenic amastigotes
# Protocol Notes: apoptosis/necrosis profiling, annexin V/PI staining, axenic amastigotes
# Format: cell-based, Leishmania infantum
# Measurement Conditions: 4 × EC50, 24 h
Marks after values point to notes of the source that are not given here.

1. O=C(/N=C(/NCc1ccccc1)Nc1ccc(I)cc1)c1ccccc1
63.27 ± 0.59 ^d %
2. C[C@@H]1[C@H](O)[C@@H](C)/C=C/C=C/C=C/C=C/C=C/C=C/C=C/[C@H](O[C@@H]2O[C@H](C)[C@@H](O)[C@H](N)[C@@H]2O)C[C@@H]2O[C@](O)(C[C@@H](O)C[C@@H](O)[C@H](O)CC[C@@H](O)C[C@@H](O)CC(=O)O[C@H]1C)C[C@H](O)[C@H]2C(=O)O [Amphotericin B, reference compound]
97.87 ± 1.01 ^d %
3. CC(C)(C)c1ccc(N/C(=N\C(=O)c2ccccc2)NCc2ccccc2)cc1
45.47 ± 1.30 ^d %

Kindly note the recorded % cells, Late Apoptosis (AV+, PI+) for O=C(/N=C(/NCc1ccccc1)Nc1ccc(Br)cc1)c1ccccc1 , which is 67.50 ± 2.05 ^d %

###

Recorded measurements of CC50 at 24 h, one per entry
# Protocol Notes: in vitro cytotoxicity in PBMC (MTT)
# Assay type: cell-based, human
# Measurement Conditions: both sexes, human, peripheral blood mononuclear cells (PBMCs), human PBMC, 24 h, MTT
Express your answer in µM, writing the number without its unit.

Here are 2 molecules together with their reported answers.
1) C[C@@H]1[C@H](O)[C@@H](C)/C=C/C=C/C=C/C=C/C=C/C=C/C=C/[C@H](O[C@@H]2O[C@H](C)[C@@H](O)[C@H](N)[C@@H]2O)C[C@@H]2O[C@](O)(C[C@@H](O)C[C@@H](O)[C@H](O)CC[C@@H](O)C[C@@H](O)CC(=O)O[C@H]1C)C[C@H](O)[C@H]2C(=O)O [Amphotericin B, reference compound]
53.9
2) O=C(/N=C(/NCc1ccccc1)Nc1ccc(Br)cc1)c1ccccc1
313

Moving on to the next molecule.
The recorded CC50 at 24 h for O=C(/N=C(/NCc1ccccc1)Nc1ccc(I)cc1)c1ccccc1 is 746
